Assay: Selectivity index, ratio of IC50 for HUVEC to IC50 for human HT-1080
Type: toxicity
Conditions: HUVEC versus HT-1080 cells, read-out: Ratio IC50
If the reported selectivity ratio equals or exceeds 6, assign true (1). If not, assign false (0).

entry_smiles=COc1cc(N(Cc2ccsc2)C(=O)CCl)cc(OC)c1OC group_label="false (0)"

Exercise: # bool: selectivity ratio of COc1cc(N(Cc2csc3ccccc23)C(=O)CCl)cc(OC)c1OC >= 6
Solution: true (1)

Exercise: # bool: selectivity ratio of COC(=O)c1ccc([C@H]2c3[nH]c4ccccc4c3C[C@H](C(=O)OC)N2C(=O)CCl)cc1 >= 6
Solution: true (1)

Exercise: # bool: selectivity ratio of COc1cc(N(Cc2cc3ccccc3s2)C(=O)CCl)cc(OC)c1OC >= 6
Solution: false (0)

Exercise: # bool: selectivity ratio of CCCCN(Cc1cc2ccccc2s1)C(=O)CCl >= 6
Solution: false (0)

----------
Test system: HT-1080
Experiment: Antiproliferative activity against human HT-1080 cells measured after 72 hrs by MTT assay
Type: functional, cell-based
Conditions: HT-1080, 72 h
Overview of recorded pIC50 for various molecules
pIC50 is a log-scale quantity: -log10 of the concentration expressed in molar.

Exercise: Please provide the recorded pIC50 for O=C(CCl)N(Cc1ccsc1)c1ccc(F)cc1 , tested on HT-1080.
Solution: 5.28

Exercise: Please provide the recorded pIC50 for O=C(CCl)N(Cc1ccoc1)c1ccccc1 , tested on HT-1080.
Solution: 4.85

Exercise: Please provide the recorded pIC50 for O=C(CCl)N(Cc1cc2ccccc2s1)c1ccccc1 , tested on HT-1080.
Solution: 4.74

Exercise: Please provide the recorded pIC50 for COc1ccc(N(Cc2csc3ccccc23)C(=O)c2noc(C)c2[N+](=O)[O-])cc1OC , tested on HT-1080.
Solution: 5.28

Exercise: Please provide the recorded pIC50 for O=C(CCl)N(Cc1cc2ccccc2s1)c1ccc(F)cc1 , tested on HT-1080.
Solution: 4.98

----------
Assay: Selectivity index, ratio of IC50 for human GES1 cells to IC50 for human HT-1080
Format: toxicity
Details: GES1 cells versus HT-1080 cells, read-out: Ratio IC50
Overview of recorded selectivity ratio for various compounds
I'd appreciate a reply containing only the number, no unit.

entry_smiles=COc1cc(N(Cc2csc3ccccc23)C(=O)CCl)cc(OC)c1OC readout_value=109

Exercise: What value of measured selectivity ratio is listed for COC(=O)c1ccc([C@H]2c3[nH]c4ccccc4c3C[C@H](C(=O)OC)N2C(=O)CCl)cc1 ?
Solution: 51.5

Exercise: What value of measured selectivity ratio is listed for CCCCN(Cc1cc2ccccc2s1)C(=O)CCl ?
Solution: 30.9

Exercise: What value of measured selectivity ratio is listed for COc1cc(N(Cc2cc3ccccc3s2)C(=O)CCl)cc(OC)c1OC ?
Solution: 18.4

Exercise: What value of measured selectivity ratio is listed for COc1cc(N(Cc2ccsc2)C(=O)CCl)cc(OC)c1OC ?
Solution: 17.3

Exercise: What value of measured selectivity ratio is listed for COc1ccc(N(Cc2csc3ccccc23)C(=O)c2noc(C)c2[N+](=O)[O-])cc1OC ?
Solution: 16.6

----------
Overview of recorded IC50 at 72 h for various compounds
Assay: Cytotoxicity against human GES1 cells measured after 72 hrs by MTT assay
Assay type: toxicity, cell-based
Provide the reading as a plain figure in µM.

entry_smiles=COc1ccc(N(Cc2csc3ccccc23)C(=O)c2noc(C)c2[N+](=O)[O-])cc1OC unit_of_measure=µM readout_value=87.3
entry_smiles=COc1cc(N(Cc2ccsc2)C(=O)CCl)cc(OC)c1OC unit_of_measure=µM readout_value=62.3
entry_smiles=COc1cc(N(Cc2csc3ccccc23)C(=O)CCl)cc(OC)c1OC unit_of_measure=µM readout_value=103
entry_smiles=COc1cc(N(Cc2cc3ccccc3s2)C(=O)CCl)cc(OC)c1OC unit_of_measure=µM readout_value=68.8
entry_smiles=COC(=O)c1ccc([C@H]2c3[nH]c4ccccc4c3C[C@H](C(=O)OC)N2C(=O)CCl)cc1 unit_of_measure=µM readout_value=62.3

Next up:
Exercise: What value of measured IC50 at 72 h is listed for CCCCN(Cc1cc2ccccc2s1)C(=O)CCl ?
Solution: 123

Where do the numbers come from? From ChEMBL document CHEMBL6114971.
